- test-system: ZMYM1 (UniProt Q5SVZ6)
- Sequence (Q5SVZ6 whole entry, looked up): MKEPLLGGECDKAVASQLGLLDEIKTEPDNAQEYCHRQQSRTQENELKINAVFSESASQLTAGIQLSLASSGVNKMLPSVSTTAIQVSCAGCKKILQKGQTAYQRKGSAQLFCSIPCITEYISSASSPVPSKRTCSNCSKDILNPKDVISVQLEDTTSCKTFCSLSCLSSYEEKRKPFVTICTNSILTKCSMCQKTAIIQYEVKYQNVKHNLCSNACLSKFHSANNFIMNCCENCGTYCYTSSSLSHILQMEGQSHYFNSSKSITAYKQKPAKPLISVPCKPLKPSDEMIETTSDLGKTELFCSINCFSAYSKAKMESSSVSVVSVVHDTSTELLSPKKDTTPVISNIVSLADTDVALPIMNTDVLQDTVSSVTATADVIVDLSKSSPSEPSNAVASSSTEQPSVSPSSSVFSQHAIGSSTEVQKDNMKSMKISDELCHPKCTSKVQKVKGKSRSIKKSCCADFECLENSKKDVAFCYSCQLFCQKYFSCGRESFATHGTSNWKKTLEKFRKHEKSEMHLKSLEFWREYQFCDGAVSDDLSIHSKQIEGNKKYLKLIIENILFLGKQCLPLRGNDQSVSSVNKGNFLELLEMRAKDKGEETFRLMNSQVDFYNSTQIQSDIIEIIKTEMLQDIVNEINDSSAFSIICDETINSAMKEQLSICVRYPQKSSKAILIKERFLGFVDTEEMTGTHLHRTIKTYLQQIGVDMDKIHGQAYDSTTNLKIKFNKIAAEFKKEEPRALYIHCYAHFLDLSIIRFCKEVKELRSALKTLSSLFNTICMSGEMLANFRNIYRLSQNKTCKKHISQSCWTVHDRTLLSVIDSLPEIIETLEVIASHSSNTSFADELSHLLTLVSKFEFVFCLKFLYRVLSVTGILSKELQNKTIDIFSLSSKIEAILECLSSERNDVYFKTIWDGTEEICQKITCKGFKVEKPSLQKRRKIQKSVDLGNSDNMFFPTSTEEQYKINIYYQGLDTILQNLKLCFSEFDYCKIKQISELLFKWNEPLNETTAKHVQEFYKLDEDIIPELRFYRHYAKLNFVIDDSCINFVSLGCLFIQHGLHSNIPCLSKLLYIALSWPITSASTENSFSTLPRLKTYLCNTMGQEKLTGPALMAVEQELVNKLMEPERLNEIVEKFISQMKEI
- assay-details: log2 fold change, soluble protein after heating vs DMSO (PISA); higher = thermal stabilisation; K562 cells, 10 uM, 30 min; active = over 0.2 and 3.5 SD of the protein, either way, in both replicates (recomputed)
Targets with a hit are over-represented here; the source holds about 7,900 in all. About 0.6% of all pairs of compound and target were hits.
measured-endpoint: log2 fold change
Numbers only.

Sample records with log2 fold change:
Cc1ccc(-n2nc(C(C)(C)C)cc2NC(=O)Nc2ccc(OCCN3CCOCC3)c3ccccc23)cc1 [doramapimod] : 0.003
Cc1ccc(NC(=O)c2ccc(CN3CC[C@H](N(C)C)C3)c(C(F)(F)F)c2)cc1Nc1nccc(-c2cncnc2)n1 [bafetinib] : -0.028
CN1CCC(CNc2ccc3ncc(-c4cccc(OC(F)(F)F)c4)n3n2)CC1 : 0.086

Now consider the entry below.
Respond only with log2 fold change recorded for "CC(C)C[C@@H](C=O)NC(=O)[C@H](CC(C)C)NC(=O)[C@H](CC(C)C)NC(=O)OCc1ccccc1"
0.006
